Readings of % inhibition of EGFR phosphorylation at 100 nM binder, cell-based assay for the listed binders
Target: EGFR on the surface of human tumour cells (A431, H292) (human, UniProt P00533 25-1210)
Assay: cell-based or functional assay
OBSERVABLE: % inhibition of EGFR phosphorylation at 100 nM binder, cell-based assay (%)

BINDER	UNITS LABEL	REPORTED RESULT
E106 (designed binder) 10Fn3 domain: MGVSDVPRDLEVVAATPTSLLISWDAPAVTYQYYRITYGETGGNSPVQEFTVPYDVYTATISGLKPGVDYTITVYAVTDYKPHADGPHTYHEYPISINYRTEIDKPSQ	%	84
E99 (designed binder) 10Fn3 domain: MGVSDVPRDLEVVAATPTSLLISWDAPTSRYQYYRITYGETGGNSPVQEFTVPGGVRTATISGLKPGVDYTITVYAVTDYKPHADGPHTYHEYPISINYRTEIDKPSQ	%	84.7
E112 (designed binder) 10Fn3 domain: MGVSDVPRDLEVVAATPTSLLISWDAGAVTYQYYRITYGETGGNSPVQEFTVPGGVRTATISGLKPGVDYTITVYAVTDYKPHADGPHTYHEYPISINYRTEIDKPSQ	%	86.2
E100 (designed binder) 10Fn3 domain: MGVSDVPRDLEVVAATPTSLLISWTPANKSYQYYRITYGETGGNSPVQEFTVPHDLVTATISGLKPGVDYTITVYAVTDHKPHADGPHTYHEYPISINYRTEIDKPSQ	%	83.3
